Please respond with reported TDCC MOLP-8 EC50 for every item in the list.
Target: T1, human BCMA on BCMA expressing cell lines (human, UniProt Q02223 1-184)
T1 sequence: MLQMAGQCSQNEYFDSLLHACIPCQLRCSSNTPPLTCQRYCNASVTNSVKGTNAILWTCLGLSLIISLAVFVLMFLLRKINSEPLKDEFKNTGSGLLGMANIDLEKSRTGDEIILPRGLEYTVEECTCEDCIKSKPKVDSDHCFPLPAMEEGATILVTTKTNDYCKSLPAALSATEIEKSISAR
Assay: cell-based or functional assay

Examples from the recorded data:
{"binder": "BCMA targeting trispecific protein 02F02 (other, trispecific; also called 02F02 TriTAC; not shown: The C-terminal 6xHis tag is left out because it follows these missing domains) VHH: EVQLVESGGGLVQPGRSLTLSCAASTNIFSKSPMGWYRQAPGKQRELVAAIHGSSTLYADSVKGRFTISRDNAKNSIYLQMNSLRPEDTALYYCNKVPWGDYHPGNVYWGQGTQVTVSS", "TDCC MOLP-8 EC50": "3.5 pM"}
{"binder": "BCMA targeting trispecific protein 01H08 (other, trispecific; also called 01H08 TriTAC; not shown: the C-terminal His6 follows those missing domains and is left out) VHH: EVQLVESGGGLVQPGRSLTLSCAASTNIMSISPMGWYRQAPGKQRELVAAIHGFSTVYADSVKGRFTISRDNAKNSIYLQMNSLRPEDTALYYCNKVPWGDYHPGNVYWGQGTQVTVSS", "TDCC MOLP-8 EC50": "0.94 pM"}
{"binder": "02G02-M34G TriTAC (other, not shown: large carriers; small tags and cut ends, trispecific) VHH: EVQLVESGGGLVQPGRSLTLSCAASTNIFSITPGGWYRQAPGKQRELVAAIHGASTLYADSVKGRFTISRDNAKNSIYLQMNSLRPEDTALYYCNKVPWGDYHPGNVYWGQGTQVTVSS", "TDCC MOLP-8 EC50": "4 pM"}

// next item, TDCC MOLP-8 EC50 requested
Given item BCMA targeting trispecific protein 02E06 (other, not shown: large carriers; small tags and cut ends, trispecific; also called 02E06 TriTAC) VHH: EVQLVESGGGLVQPGRSLTLSCAASTNIFSDSPMGWYRQAPGKQRELVAAIHGFSTFYADSVKGRFTISRDNAKNSIYLQMNSLRPEDTALYYCNKVPWGDYHPGNVYWGQGTQVTVSS , the value recorded as its TDCC MOLP-8 EC50 is 2.4 pM

Data origin, for the record: patent US20240327534A1
